Listing of entries alongside the reported DSS.
test system: 783C-6; assay: High-throughput drug screen, CellTiter-Glo viability, 72 h; assay type: cell-based, human; settings: 783C-6 cells, DSS of DSRT analysis
measured metric: DSS

1) O=C(CCCCCCNC(=O)c1cnc(N(c2ccccc2)c2ccccc2)nc1)NO    2.2
2) O=C(NNS(=O)(=O)c1ccccc1F)c1cc(F)cc(-c2ccccn2)c1    0
3) O=C(NNc1ccccn1)c1ccccn1    0

----------
tested on: 783C-6; experiment: High-throughput drug screen, CellTiter-Glo viability, 72 h; type: cell-based, human; conditions: 783C-6 cells, DSS of DSRT analysis
Structures can show the parent of a compound that is named as a salt.
# key: entry, value: DSS
measured metric: DSS

1) Nc1cc(F)ccc1NC(=O)/C=C/c1cnn(C/C=C/c2ccccc2)c1    0
2) CCCOc1ccc(/C=C2\SC(=O)NC2=O)cc1 [SMI-16a]    0
3) CNCCN1CCC(OCc2ccccc2)CC1    0
4) CN1CCc2c(c3ccccc3n2Cc2ccc(C(=O)NO)cc2)C1.O=C(O)C(F)(F)F [Tubastatin A TFA]    0
5) CNC(=O)c1cc(Oc2ccc(NC(=O)Nc3ccc(Cl)c(C(F)(F)F)c3)cc2)ccn1 [Sorafenib Tosylate]    3.4
